System: NCI/ADR-RES
Test: NCI tumour cell line growth inhibition, 48 h
The source made the active and inactive calls. Cut-off read from the data, not from the text of the source: active = GI50 up to about 1.1 µM and inactive = higher.
endpoint-name: GI50

{"compound": "Clc1ccc(C2=Cc3nc2c(-c2ccccc2)c2ccc([nH]2)c(-c2ccccc2)c2nc(c(-c4ccccc4)c4ccc([nH]4)c3-c3ccccc3)C=C2)cc1", "meas-value": "> 62.5 µM (inactive)"}
{"compound": "COc1ccc(CCCNC(=O)Cc2ccccc2CO)cc1OC", "meas-value": "> 100 µM (inactive)"}
{"compound": "NC(=O)CC(N)C(=O)NC(Cc1ccccc1)C(=O)NC(Cc1ccccc1)NC(=O)C(Cc1c[nH]c2ccccc12)C(=O)O (centres undefined)", "meas-value": "> 100 µM (inactive)"}
{"compound": "Cc1nc2ccccc2c(=O)n1-c1n[nH]c2ccccc12", "meas-value": "> 100 µM (inactive)"}
{"compound": "Cc1cccc(C)c1NC(=O)/C(Cc1nc2ccc([N+](=O)[O-])cc2nc1O)=N\\NC(N)=O", "meas-value": "85.5 µM (inactive)"}
{"compound": "COC(=O)C1=C(C(=O)OC)SC(=C2SCSC3=C2SC(C(=O)OC)=C(C(=O)OC)C32SC3=C(CCCC3)S2)S1", "meas-value": "> 100 µM (inactive)"}
{"compound": "N#Cc1cnn2ccn(C3OC(COC(=O)c4ccccc4)C(OC(=O)c4ccccc4)C3OC(=O)c3ccccc3)c12 (centres undefined)", "meas-value": "> 21.5 µM (inactive)"}
{"compound": "CNC(=O)OCc1nc([S+](C)[O-])n(C)c1COC(=O)NC (centres undefined)", "meas-value": "> 100 µM (inactive)"}
{"compound": "CSc1[nH]nc(N)c1C(=O)Nc1ccccc1", "meas-value": "> 100 µM (inactive)"}

###

Test system: HOP-92
Experiment: NCI tumour cell line growth inhibition, 48 h
Active and inactive are the calls of the source. Cut-off read from the data, not from the text of the source: active = GI50 up to about 1.1 µM and inactive = higher.

{"molecule": "CN(C)Cc1cc(/C(=C(\\C#N)c2ccccc2)c2ccc(O)cc2)ccc1O", "tested-on": "HOP-92", "GI50": "14.4 µM (inactive)"}
{"molecule": "O=C(CC(=O)Nc1ccccc1Cl)NNC(Sc1ccccc1)c1cc(/N=N/c2ccc(Br)cc2)ccc1O (stereo not given)", "tested-on": "HOP-92", "GI50": "2.07 µM (inactive)"}
{"molecule": "N#Cc1cnn2ccn(C3OC(COC(=O)c4ccccc4)C(OC(=O)c4ccccc4)C3OC(=O)c3ccccc3)c12 (stereo not given)", "tested-on": "HOP-92", "GI50": "> 31.6 µM (inactive)"}
{"molecule": "CCCCCCCCCC(=O)OCC1(CO)C/C(=C/CC(C(C)C)C(C)C)C(=O)O1 (stereo not given)", "tested-on": "HOP-92", "GI50": "> 100 µM (inactive)"}
{"molecule": "COc1ccc(-c2c(C#N)c(-c3ccc(C)cc3)n(NS(=O)(=O)c3ccc(C)cc3)c(=O)c2C#N)cc1", "tested-on": "HOP-92", "GI50": "74.6 µM (inactive)"}

###

System: Malme-3M
Assay: NCI tumour cell line growth inhibition, 48 h
Activity calls are given as the source filed them. Rule as the data show it: active = GI50 up to about 1.1 µM and inactive = higher.
endpoint-name: GI50

{"compound": "CCCN(CCCCC(NC(C)=O)C(=O)NCc1ccccc1)C(=O)NC (stereo not given)", "tested-on": "Malme-3M", "endpoint-name": "GI50", "meas-value": "> 100 µM (inactive)"}
{"compound": "CCOC(=O)[C@@]12CCC(C1=O)[C@](C)(O)C[C@@H]2c1ccccc1", "tested-on": "Malme-3M", "endpoint-name": "GI50", "meas-value": "37.6 µM (inactive)"}
{"compound": "O=C(CC(=O)Nc1ccccc1Cl)NNC(Sc1ccccc1)c1cc(/N=N/c2ccc(Br)cc2)ccc1O (stereo not given)", "tested-on": "Malme-3M", "endpoint-name": "GI50", "meas-value": "2.12 µM (inactive)"}
{"compound": "COC(=O)/C=C(\\S/C(=C(/c1ccccc1)n1cc(C(=O)OC)c(C(=O)OC)n1)c1ccccc1)C(=O)OC", "tested-on": "Malme-3M", "endpoint-name": "GI50", "meas-value": "14.8 µM (inactive)"}
{"compound": "O=C(/C=C/NC(=O)OCc1ccccc1)OCc1ccccc1", "tested-on": "Malme-3M", "endpoint-name": "GI50", "meas-value": "> 100 µM (inactive)"}
{"compound": "CN/C(=N/C#N)NCc1ccccc1", "tested-on": "Malme-3M", "endpoint-name": "GI50", "meas-value": "> 100 µM (inactive)"}
{"compound": "Cn1cnc(N2CCCC2)c(C#N)c1=S", "tested-on": "Malme-3M", "endpoint-name": "GI50", "meas-value": "> 100 µM (inactive)"}
{"compound": "COC(=O)[C@@H]1C[C@]2(CC=C(C)C)c3ccccc3N(S(=O)(=O)c3ccccc3)[C@@H]2N1C(=O)OC", "tested-on": "Malme-3M", "endpoint-name": "GI50", "meas-value": "32.5 µM (inactive)"}
{"compound": "CNN1C(=O)c2c(N)c(C#N)c(-c3ccccc3)c(-c3ccccc3)c2C1=O", "tested-on": "Malme-3M", "endpoint-name": "GI50", "meas-value": "> 100 µM (inactive)"}
{"compound": "C1=Cc2cccc3occ(c23)C=C1", "tested-on": "Malme-3M", "endpoint-name": "GI50", "meas-value": "> 100 µM (inactive)"}
